Molecular target: fully phosphorylated, active Mouse ERK2 protein (Mus musculus (Mouse), UniProt P63085)
Sequence (P63085 whole entry): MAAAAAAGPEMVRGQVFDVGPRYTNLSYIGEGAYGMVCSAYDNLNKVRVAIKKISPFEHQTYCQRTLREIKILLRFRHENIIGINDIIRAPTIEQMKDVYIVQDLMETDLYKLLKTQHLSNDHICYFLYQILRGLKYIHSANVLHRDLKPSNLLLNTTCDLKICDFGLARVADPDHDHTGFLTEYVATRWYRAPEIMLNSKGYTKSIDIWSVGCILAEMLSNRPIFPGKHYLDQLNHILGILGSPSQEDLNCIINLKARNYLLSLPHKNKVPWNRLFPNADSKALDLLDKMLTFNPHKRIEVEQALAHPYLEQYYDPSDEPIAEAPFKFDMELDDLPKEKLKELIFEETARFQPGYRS
Classification field. Basis: IC50. Definitions: lower band: < 200 nM; central band: ≥ 200 nM and < 800 nM; upper band: ≥ 800 nM

// bin(item) where item = Cc1cc(-c2n[nH]c3ccc(C(=O)NC4CCCC(CO)(Cc5c(F)cccc5F)C4)cc23)ccn1 (stereo not drawn) [compound 129]
central band

// bin(item) where item = Cc1cc(-c2n[nH]c3ccc(C(=O)NN4CCCC4CCc4ccccc4)cc23)ccn1 (stereo not drawn) [compound 145]
lower band

// bin(item) where item = Cc1cc(-c2n[nH]c3ccc(C(=O)NC4CCCC(Cn5c(C)nc6cnccc65)C4)cc23)ccn1 (stereo not drawn) [compound 116]
upper band

// bin(item) where item = CC(C)Oc1ccc(-c2n[nH]c3ccc(C(=O)N[C@@H]4CCC[C@](O)(Cc5ccccc5F)C4)cc23)cn1 [compound 17]
lower band

// bin(item) where item = Cc1cc(-c2n[nH]c3ccc(C(=O)N[C@@H]4CCC[C@@](O)(Cn5c(=O)ccc6ccccc65)C4)cc23)ccn1 (relative stereo) [compound 93]
lower band

// bin(item) where item = Cc1cc(-c2n[nH]c3ccc(C(=O)NC4CCCC(CO)(Oc5cccc(F)c5)C4)cc23)ccn1 (single isomer, unassigned) [compound 45]
lower band

// bin(item) where item = Cc1cc(-c2n[nH]c3ccc(C(=O)NC4CCCC(CO)(Cc5ccc(F)cc5)C4)cc23)ccn1 (stereo not drawn) [compound 135]
central band

// bin(item) where item = Cc1cc(-c2n[nH]c3ccc(C(=O)NC4CCCC(Cn5ncc6cccnc65)C4)cc23)ccn1 (stereo not drawn) [compound 114]
lower band

// bin(item) where item = Cc1cc(-c2n[nH]c3ccc(C(=O)N[C@@H]4CCC[C@@](O)(Cn5ncccc5=O)C4)cc23)ccn1 (relative stereo) [compound 84]
upper band

// bin(item) where item = Cc1cc(-c2n[nH]c3ccc(C(=O)NC4CCCC(CO)(Cc5ccccc5F)C4)cc23)ccn1 (mixture of isomers) [compound 130]
upper band
